test: chemical genetic growth profiling, strain panel (AID 1159580);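 note: tested at 20 µM; growth read once vehicle control cultures reached saturation at 30 °C; 1 = growth at the plate median or of vehicle wells; lower values mean less growth of the strain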; conditions: S. cerevisiae deletion strains, growth OD, locus YJR075W, strain HOC1, active compounds read low
The campaign covered roughly 5,500 compounds. About 2,000 (36%) were called active. About 18% were inconclusive and are not listed. This is one part of the list.
Each record here notes measured normalized growth.

| molecule | normalized growth |
| --- | --- |
| O=C(Cc1ccccc1)NC1CCN(S(=O)(=O)c2ccc(Cl)cc2)CC1 | 0.962 |
| COP(=O)(NC(C)=O)SC (centres undefined) | 1.03 |
| Cc1cc(NS(=O)(=O)c2ccc(NC(=O)c3ccccc3)cc2)no1 | 0.992 |
| COc1ccc(CCNC(=O)c2ccccc2Cl)cc1OC | 0.994 |
| Cc1c(NC(C)C)c(=O)n(-c2ccccc2)n1C | 0.994 |
| CN1CCN(C2=Nc3cc(Cl)ccc3Nc3ccccc32)CC1 | 0.982 |
| CC(C)c1cc2c(c(O)c1O)[C@@]1(C(=O)O)CCCC(C)(C)C1CC2 (some centres undefined) | 0.947 |
| CC(=O)Nc1ccc(S(=O)(=O)NCCCN2CCN(Cc3ccccc3)CC2)cc1Cl | 1.01 |
| O=C(NNC(=O)c1ccc[nH]1)Nc1cc(Cl)cc(Cl)c1 | 1.01 |
| COC(=O)[C@H](NC(=O)c1cc(-c2ccccc2)nc2ccccc12)c1ccccc1 | 1 |
| COC1=C(OC)C(=O)c2ccccc2C1=O | 0.998 |
| Cc1cc(Oc2c([N+](=O)[O-])cc(C(F)(F)F)cc2[N+](=O)[O-])c2c(Cl)ccc(C)c2n1 | 0.89 |
| O=c1onc2n1-c1cc(Br)ccc1OC2 | 1 |
| ClC1C(Cl)C(Cl)C(Cl)C(Cl)C1Cl (centres undefined) | 0.926 |
| O=C(OCCNc1ccc([N+](=O)[O-])cn1)c1ccc([N+](=O)[O-])o1 | 0.795 |
| Clc1cc(Cl)cc(Br)c1 | 1 |
| CC(=O)OC[C@@]1(O)C[C@@]23CCC4c5ccoc5CC[C@]4(C)C2CC[C@@H]1C3 (some centres undefined) | 1.01 |
| CON | 1.02 |
| Cc1ccc(S(=O)(=O)N2CCC(C(c3ccccc3)c3ccccc3)CC2)cc1 | 1 |
| COC(=O)c1cc(OC)c(OC)cc1NC(=O)Nc1cc(Cl)cc(Cl)c1 | 0.982 |
| COc1ccc(NC(=O)/C=C/c2ccc(Cl)cc2)cc1 | 0.98 |
| NS(=O)(=O)c1cc2c(cc1Cl)NCNS2(=O)=O | 1.01 |
| CC(C)OC(=O)Nc1cccc(Cl)c1 | 0.994 |
| FC(F)(F)c1cc(-c2ccco2)nc2cc(-c3ccco3)nn12 | 0.903 |
| Nc1c(Cl)cc(C(=O)Nc2cc(Cl)cc(Cl)c2)cc1Cl | 0.97 |
| O=Nc1c(-c2c(O)[nH]c3ccccc23)[nH]c2ccccc12 | 1.01 |
| Cc1cc(S(=O)(=O)NC(Cc2ccc([N+](=O)[O-])cc2)C(=O)O)c(Cl)cc1Cl (centres undefined) | 1 |
| O=[N+]([O-])c1ccc(NCCCCCO)nc1 | 1.02 |
| COc1cc2cccc(OC)c(=O)c2c(OC)c1OC | 1 |
| Cc1cc(C(F)(F)F)n2nc(-c3ccc(C(C)(C)C)cc3)cc2n1 | 0.994 |
| O=[N+]([O-])c1cc(Cl)c(Sc2ccccc2)cc1Sc1ccccc1 | 0.994 |
| Nc1ccccc1C(=O)NCCc1ccc(Cl)cc1 | 0.888 |
| CCOC(=O)CC(=O)CSc1nnc(N)s1 | 1.01 |
| Cc1noc(C)c1C(=O)N1CCOCC1 | 1 |
| O=C1CSC(c2cccnc2)N1c1ccc(Cl)cc1 (centres undefined) | 1 |
| Nc1cccc2c1C(=O)c1ccccc1-2 | 0.0797 |
| C/C(=N/O)c1ccn(S(=O)(=O)c2ccc(Cl)cc2)c1 | 1.02 |
| Nc1nc(SCc2ccc([N+](=O)[O-])cc2)c2ncn([C@@H]3O[C@H](CO)[C@H](O)C3O)c2n1 (some centres undefined) | 0.995 |
| O=C(Nc1cc(-c2ccccc2)[nH]n1)c1ccccc1 | 0.902 |

====

assay: chemical genetic growth profiling, strain panel (AID 1159580);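 note: tested at 20 µM; growth read once vehicle control cultures reached saturation at 30 °C; 1 = growth at the plate median or of vehicle wells; lower values mean less growth of the strain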; settings: S. cerevisiae deletion strains, growth OD, locus YHR030C, strain SLT2
In all, about 5,500 compounds went through this assay and about 2,000 (36%) were called active. About 18% were inconclusive and are not listed. Cut-off read from the data, not from the text of the source: active = normalized growth mostly below about 0.91 (no sharp cut-off); inconclusive = no clear call, values can overlap the other calls; inactive = mostly above about 0.92. This is one part of the list.
Labels: active, inactive

| molecule | answerLabel |
| --- | --- |
| O=C(O)[C@H]1/C(=C/CO)O[C@@H]2CC(=O)N21 | inactive |
| O=C(Nc1cc(Cl)cc(Cl)c1)c1cc(Cl)ccc1O | active |
| Cn1cc(Br)c(-c2cccc(NS(=O)(=O)c3ccc(Cl)cc3)c2)n1 | inactive |
| CC(=O)Nc1ccc(S(=O)(=O)NCCCN2CCN(Cc3ccccc3)CC2)cc1Cl | inactive |
| O=C(/C=C/c1ccc(O)cc1)c1ccccc1O | active |
| C/C(=N/O)c1ccn(S(=O)(=O)c2ccc(Cl)cc2)c1 | inactive |
| Cc1ccc(S(=O)(=O)N2CCC(C(c3ccccc3)c3ccccc3)CC2)cc1 | inactive |
| Cn1c(=O)[nH]c2nc[nH]c2c1=O | inactive |
| N=C(N)SCc1c(F)cccc1Cl | inactive |
| COc1cccc(C2SCc3cc(C)c(C)cc3CS2)c1O | inactive |
| CCOC(=O)C(O)(c1ccc(NC(=O)c2ccc(Cl)c(Cl)c2)cc1)C(F)(F)F (stereo unspecified) | inactive |
| Nc1nc(Sc2ccc(C(F)(F)F)cc2[N+](=O)[O-])n[nH]1 | inactive |
| C=CC1CN2CCC1CC2C(OC(C)=O)c1ccnc2ccc(OC)cc12 (stereo unspecified) | inactive |
| O=C(Nc1ccccc1Sc1ccc(C(F)(F)F)cc1[N+](=O)[O-])C(Cl)Cl | inactive |
| O=C(Nc1ccc(F)cc1F)c1cc(Cl)ccc1O | inactive |
| O=C(Cc1ccccc1)NC1CCN(S(=O)(=O)c2ccc(Cl)cc2)CC1 | inactive |
| C=C(C)C1Cc2c(ccc(C(=O)O)c2O)O1 (stereo unspecified) | inactive |
| COc1cc(C2SCCS2)cc(Br)c1OC(=O)NC(=O)c1c(Cl)cccc1Cl | active |
| O=C(CNc1cccc(Cl)c1)c1ccc(Cl)cc1 | inactive |
| Cc1cc2c(cc1C)CSC(C)(c1ccc(F)cc1)SC2 | inactive |
| Cc1noc(C)c1C(=O)N1CCOCC1 | inactive |
| Nc1ccccc1C(=O)NCCc1ccc(Cl)cc1 | inactive |
| CC(=N/O)/C(C)=C/c1ccc(Cl)cc1 | active |
| Cc1cc2c(s1)Nc1ccccc1N=C2N1CCN(C)CC1 | inactive |
| COc1ccccc1NC(=S)NCCc1ccc(OC)c(OC)c1 | inactive |
| CC[C@@H](CO)NC(=O)[C@@H]1C=C2c3cccc4c3c(cn4C)C[C@H]2N(C)C1 | inactive |
| CC(=O)OC1CCC23CC1(C)CCC2C(C)(C)CC3OC(C)=O (stereo unspecified) | inactive |
| C[N+]1(C)C2CCC1CC(OC(=O)C(CO)c1ccccc1)C2 (stereo unspecified) | inactive |
| Cn1c(=O)[nH]c2ncn(C)c2c1=O | inactive |
| O=c1c(O)c(-c2ccc(O)cc2)oc2ccccc12 | active |
| C/C(=N/O)c1ccc2c(c1)C(C)(C)CCC2(C)C | inactive |
| CO/N=C(/C(=O)NC1C(=O)N2C(C(=O)OCOC(=O)C(C)(C)C)=C(/C=C\c3scnc3C)CSC12)c1csc(N)n1 (stereo unspecified) | inactive |
| NC(=O)C1=C(O)C(=O)N(C2CCCCC2)C1 | inactive |
| O=[N+]([O-])c1cc(C(F)(F)F)ccc1Sc1n[nH]c(-c2cc(Cl)cc(Cl)c2)n1 | active |
| O=C(/C=C/c1ccccc1)c1c(O)cc(O)cc1O | inactive |
| Cc1nc(C(F)(F)F)nc(Sc2n[nH]c(-c3cc(Cl)cc(Cl)c3)n2)c1C | inactive |
| S=C(NCCc1csc2ccccc12)Nc1ccc(Cl)cc1 | active |
| Cn1c(=O)c2c(ncn2CCCl)n(C)c1=O | inactive |
| COc1ccc(CCNC(=O)c2ccccc2Cl)cc1OC | inactive |
| NNC(=O)c1oc2nc(-c3ccccc3)cc(-c3ccccc3)c2c1N | inactive |
| COC(=O)C(Cc1c[nH]c2ccccc12)NC(=O)c1c(Cl)cccc1Cl (stereo unspecified) | inactive |

====

Each record here notes measured normalized growth.
experiment: chemical genetic growth profiling, strain panel (AID 1159580);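 note: tested at 20 µM; growth read once vehicle control cultures reached saturation at 30 °C; 1 = growth at the plate median or of vehicle wells; lower values mean less growth of the strain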; conditions: S. cerevisiae deletion strains, growth OD, locus YJR075W, strain HOC1, active compounds read low
Screen size: about 5,500 compounds; about 2,000 (36%) were called active. Another 18% or so got no clear call; they are omitted. The list shows a part of the results.

| compound | normalized growth |
| --- | --- |
| COc1cc(O)ccc1C(C)=O | 0.966 |
| CC(C)[C@@H](CO)Nc1nc(Nc2cccc(Cl)c2)c2ncn(C(C)C)c2n1 | 1.02 |
| O=[N+]([O-])c1cc(C(F)(F)F)ccc1Sc1ccc(Cl)cc1 | 1.02 |
| C#CCn1c(=O)c2c(ncn2C)n(C)c1=O | 0.994 |
| Cn1c(Sc2ccc(C(F)(F)F)cc2[N+](=O)[O-])nnc1C(F)(F)F | 0.973 |
| Cn1c(=O)c2c(ncn2CCO)n(C)c1=O | 1 |
| Nc1nc(Sc2ccc(C(F)(F)F)cc2[N+](=O)[O-])n[nH]1 | 1.01 |
| CCCN1CCCC2Cc3[nH]ncc3CC21 (configuration not stated) | 1 |
| O=C(O)c1ccccc1Sc1c(C(=O)O)cc([N+](=O)[O-])cc1[N+](=O)[O-] | 1 |
| N#CCC(=O)N(Cc1ccccc1F)C(=O)NC1CCCCC1 | 0.963 |
| Cn1c(=O)c2c(ncn2CCCl)n(C)c1=O | 0.987 |
| Nc1nc(Sc2cc(-n3cccc3)c(Cl)cc2[N+](=O)[O-])n[nH]1 | 1.01 |
| CCOC(=O)c1ccc(N2CCOCC2)c(N=Cc2cc(Cl)ccc2O)c1 | 0.855 |
| COC1=CC23CCCN2CCc2cc4c(cc2C3C1O)OCO4 (configuration not stated) | 1.01 |
| O=C(O)C1c2ccccc2C(=O)N(Cc2ccc3c(c2)OCO3)C1c1cccnc1 (configuration not stated) | 1.03 |
| C[N+]1(C)C2CCC1CC(OC(=O)C(CO)c1ccccc1)C2 (configuration not stated) | 1 |
| Cc1cc(N=C(N)N=C(N)N)no1 | 1 |

Cited source for all entries: PubChem BioAssay AID1159580
